Assignment: determine reported Neuronal survival (% of control) for the given compounds.
- Test system: Rat dopaminergic neurones
- assay procedure: Pre-treatment against MPP+-induced loss of dopaminergic neurones
- Type: cell-based
- run parameters: 30 nM, 24 h before and during MPP+ 2 μM 48 h

C[C@@H]1CC[C@@]2(OC1)O[C@H]1C[C@H]3[C@@H]4CC[C@@H]5C[C@H](O)CC[C@]5(C)[C@H]4CC[C@]3(C)[C@H]1[C@@H]2C [epismilagenin] ... 115.12 ± 4.73 % of control

Please state Neuronal survival (% of control) for every compound in the list that follows.
1. C[C@H]1CC[C@@]2(OC1)O[C@H]1C[C@H]3[C@@H]4CC[C@@H]5C[C@H](O)CC[C@]5(C)[C@H]4CC[C@]3(C)[C@H]1[C@@H]2C [episarsasapogenin]
2. C[C@@H]1CC[C@@]2(OC1)O[C@H]1C[C@H]3[C@@H]4CC[C@@H]5C[C@@H](O)CC[C@]5(C)[C@H]4CC[C@]3(C)[C@H]1[C@@H]2C
3. C[C@H]1CC[C@@]2(OC1)O[C@H]1C[C@H]3[C@@H]4CC[C@@H]5C[C@@H](O)CC[C@]5(C)[C@H]4CC[C@]3(C)[C@H]1[C@@H]2C

**Result**
95.01 ± 4.52 % of control
97.91 ± 3.63 % of control
88.73 ± 4.39 % of control
